Notes on pIC50 obtained with Cathepsin B (Homo sapiens, UniProt P07858).
pIC50: −log10 of the molar value.

{"smiles-representation": "O=C1c2ccccc2-c2nn3c(Cc4ccccc4)nnc3nc21", "pIC50": 6.44}
{"smiles-representation": "COCc1nnc2nc3c(nn12)C(=O)c1ccccc1-3", "pIC50": 5.99}
{"smiles-representation": "CCCc1nnc2nc3c(nn12)-c1ccccc1C3=O", "pIC50": 6.57}
